Data provenance is ChEMBL document CHEMBL3867469.

Data export: pIC50 values recorded with Nuclear receptor ROR-gamma (Homo sapiens).
Sequence (P51449 whole entry): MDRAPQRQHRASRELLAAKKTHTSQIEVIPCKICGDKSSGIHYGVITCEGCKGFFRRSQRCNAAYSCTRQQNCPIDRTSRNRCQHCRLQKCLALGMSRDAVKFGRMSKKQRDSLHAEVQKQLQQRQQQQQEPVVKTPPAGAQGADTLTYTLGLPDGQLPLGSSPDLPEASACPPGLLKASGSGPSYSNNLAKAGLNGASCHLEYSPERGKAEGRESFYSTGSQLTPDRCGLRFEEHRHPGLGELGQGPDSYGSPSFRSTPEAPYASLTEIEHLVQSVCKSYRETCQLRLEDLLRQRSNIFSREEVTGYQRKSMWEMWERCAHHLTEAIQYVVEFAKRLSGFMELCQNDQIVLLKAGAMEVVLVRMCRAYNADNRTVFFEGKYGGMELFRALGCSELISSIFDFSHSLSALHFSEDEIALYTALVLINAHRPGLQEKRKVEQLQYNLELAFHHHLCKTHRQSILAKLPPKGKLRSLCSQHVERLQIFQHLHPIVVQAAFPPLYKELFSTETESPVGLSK
pIC50: −log10 of the molar value.

As a guide, the following entries are already answered.
compound | pIC50
CN(C)C(=O)c1ccc2c(c1)c(Sc1ccc(Cl)cc1Cl)nn2-c1ccc(C(=O)O)cc1 | < 5.00
Cc1cccc2c(Oc3c(Cl)cccc3Cl)nn(-c3ccc(C(=O)O)cc3)c12 | < 5.00
CN(CCO)C(=O)c1ccc2c(c1)c(Sc1c(Cl)cccc1Cl)nn2-c1ccc(C(=O)O)cc1 | < 5.00
CNC(=O)c1ccc2c(c1)c(Sc1c(Cl)cccc1Cl)nn2-c1ccc(C(=O)O)cc1 | < 5.00

// query What does the data say about its pIC50? Entry: "CN(C)C(=O)c1ccc2c(c1)c(S(=O)(=O)c1c(Cl)cccc1Cl)nn2-c1ccc(C(=O)O)cc1"
// result < 5.00
